Data provenance is patent US12630785B2.

- assay_text: Capsule perfume leakage in liquid fabric enhancer (LFE), headspace SPME GC/MS
- Assay type: physicochemical
- details: PRM of Perfume 4 out of Comparative Example 9-1 capsules (per EP3078415A); LFE Composition 1
measured_attribute: Leakage (as %) after 1 week at 35° C.

Example cases with answers are listed next.
* CC(=O)OC1CC2CC1C1CC=CC21 (stereo not drawn) [Verdyl acetate] | 67
* CCCCCCOC(=O)c1ccccc1O [Hexyl Salicylate] | 34
* CC(=O)/C=C/C1C(C)=CCCC1(C)C (stereo not drawn) [Alpha-ionone] | 58

[A] CCC(C)(O)CCCC(C)C (stereo not drawn) [Tetrahydro linalool]
[B] CC(C=O)Cc1ccc(C(C)(C)C)cc1 (stereo not drawn) [Lilial]
[C] CCCCCC/C(C=O)=C\c1ccccc1 [Hexylcinnamyl aldehyde]
Ask: Arrange the 3 entries by Leakage (as %) after 1 week at 35° C. so the values rise. API: response body holds the labels in the requested order.
Reply: C, B, A

====

- assay_text: Capsule perfume leakage in liquid fabric enhancer (LFE), headspace SPME GC/MS
- Type: physicochemical
- details: PRM of Perfume 1 out of Comparative Example 10-2 capsules (per WO2010013250A2, with IPM); LFE Composition 1
measured_attribute: Leakage (as %) after 1 week at 35° C.

- CC(=O)OC1CC2CC1C1CC=CC21 (stereo not drawn) [Verdyl acetate]: 94
- CCOC(=O)C(C)CC (stereo not drawn) [Ethyl 2-methyl butyrate]: 100
- CC(=O)OC1CCC(C(C)(C)C)CC1 (stereo not drawn) [(4-tert-butylcyclohexyl) acetate]: 91
- CC12CCC(CC1)C(C)(C)O2: 96
- CC(=O)O[C@@H]1C[C@H]2CC[C@]1(C)C2(C)C (racemic) [iso-Bornyl acetate]: 92
- CC1=CC(C)C(C=O)CC1 (stereo not drawn): 96
- CCC(C)(O)CCCC(C)C (stereo not drawn) [Tetrahydro linalool]: 95
- CC(=O)OC1CCCCC1C(C)(C)C (stereo not drawn) [(2-tert-butylcyclohexyl) acetate]: 92
- CCC(C)CCCC(C)(C)O (stereo not drawn) [Tetrahydro myrcenol]: 95

====

- assay_text: Capsule perfume leakage in liquid fabric enhancer (LFE), headspace SPME GC/MS
- Format: physicochemical
- details: PRM of Perfume 4 out of Example 9-1 capsules (Sample E); LFE Composition 1
measured_attribute: Leakage (as %) after 1 week at 35° C.

Example cases with answers are listed next.
• CC(=O)/C=C/C1C(C)=CCCC1(C)C (stereo not drawn) = 15
• CCCCCC/C(C=O)=C\c1ccccc1 = 7
• CCC(C)(O)CCCC(C)C (stereo not drawn) [Tetrahydro linalool] = 17

[A] CC(C=O)Cc1ccc(C(C)(C)C)cc1 (stereo not drawn)
[B] CCCCCCOC(=O)c1ccccc1O [Hexyl Salicylate]
Ask: Lab note: record which item had the higher Leakage (as %) after 1 week at 35° C., A or B . Answer with the label corresponding to your selection.
Reply: A

====

- assay_text: Capsule perfume leakage in liquid fabric enhancer (LFE), headspace SPME GC/MS
- Assay type: physicochemical
- details: PRM of Perfume 1 out of Comparative Example 6-1 capsules (no second shell component); LFE Composition 1
- Procedure: The testing of capsule leakage in liquid compositions (e.g., liquid fabric enhancer/“LFE” compositions and/or heavy-duty liquid/“HDL” detergents) is performed as follows. […] It is to be noted that the capsule sample and the total oil sample are not analyzed on the same day, as there is a need to prepare the total oil sample after the leakage sample has been removed from storage. […] After equilibrating, the samples are analyzed by GC/MS. […]
measured_attribute: Leakage (as %) after 1 week at 35° C.

- CC12CCC(CC1)C(C)(C)O2: 72
- CCC(C)(O)CCCC(C)C (stereo not drawn) [Tetrahydro linalool]: 83
- CCOC(=O)C(C)CC (stereo not drawn) [Ethyl 2-methyl butyrate]: 101

[I] CC(=O)OC1CCC(C(C)(C)C)CC1 (stereo not drawn) [(4-tert-butylcyclohexyl) acetate]
[II] CC1=CC(C)C(C=O)CC1 (stereo not drawn)
Ask: Lab note: record which item had the higher Leakage (as %) after 1 week at 35° C., I or II . Answer with the label corresponding to your selection.
Reply: II
(II: 94%, I: 4%)
